test: Noncompartmental pharmacokinetics after single oral doses in healthy volunteers; type: in vivo, human; settings: male, human; urine; single oral dose 200 mg; n = 4; geometric mean (CV%); read-out: Renal clearance (converted)
value_kind: CL renal

Documented CL renal of `NS(=O)(=O)c1ccc(N2CCCCS2(=O)=O)cc1` : 2.17 mL/min

---

assay: Noncompartmental pharmacokinetics after single oral doses in healthy volunteers; type: in vivo, human; conditions: male, human; whole blood; single oral dose 200 mg; n = 4; geometric mean (CV%)
value_kind: Cmax
Remember to quote the unit after the number.

Documented Cmax of NS(=O)(=O)c1ccc(N2CCCCS2(=O)=O)cc1 [Sultiame] : 17200 ng/mL
